protocol details: inhibition of NOD1-driven NF-kB reporter – cell-based, luminescence, uHTS, primary screen (AID 1578);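 further: HEK-293T reporter cells stimulated with the NOD1 agonist gamma-tri-DAP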
test settings: NOD1-driven NF-kB luciferase reporter cells, at 4 µM, active compounds read high
Screen size: about 290,000 compounds; about 3,000 (1%) were called active. This is one part of a sample in which actives are shown more often than they occur.

molecule: COc1ccc(CNCCc2c(C)[nH]c3ccc(OC(F)(F)F)cc23)c(OC)c1
unit abbrev: %
inhibition: 5.5
//
molecule: O=C(Nc1ccccc1)c1cccn(Cc2ccccc2)c1=O
unit abbrev: %
inhibition: 23
//
molecule: O=C(CN1CCCC1)Nc1ccc(Cl)cc1C(=O)c1ccccc1
unit abbrev: %
inhibition: -5.6
//
molecule: CC(=O)[C@@]1(O)CC[C@H]2[C@@H]3CC=C4C[C@@H](O)CC[C@]4(C)[C@H]3CC[C@@]21C
unit abbrev: %
inhibition: -24.8
//
molecule: c1ccc2c(c1)CNc1ccccc1O2
unit abbrev: %
inhibition: -9
//
molecule: Cn1c(O)c(C=Nc2ccccc2-c2ccccc2)c(=O)n(C)c1=O
unit abbrev: %
inhibition: -12.2
//
molecule: O=C(NCc1ccccc1)c1cccn(Cc2ccccc2)c1=O
unit abbrev: %
inhibition: 2.3
//
molecule: C[C@]12CC[C@H]3C(CCC4(O)CC(O)CC[C@]34C=O)C1=CC[C@H]2c1ccc(=O)oc1 (stereo partly specified)
unit abbrev: %
inhibition: 60.3
//
molecule: CC12CC[C@H]3[C@@H](CCC4(O)C[C@H](O)CCC34/C=N/NC(=O)c3ccccc3Cl)C1(O)CCC2C1=CC(=O)OC1 (stereo partly specified)
unit abbrev: %
inhibition: 3
//
molecule: CNCC(C)c1ccccc1 (stereo unspecified)
unit abbrev: %
inhibition: -8.7
//
molecule: O=P(Nc1ccccc1)(Nc1ccccc1)Oc1ccccc1
unit abbrev: %
inhibition: -0.3

---

protocol details: inhibition of NOD1-driven NF-kB reporter – cell-based, luminescence, uHTS, primary screen (AID 1578);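 further: HEK-293T reporter cells stimulated with the NOD1 agonist gamma-tri-DAP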
test settings: NOD1-driven NF-kB luciferase reporter cells, at 4 µM, active compounds read high
Out of some 290,000 compounds screened, about 3,000 (1%) were called active. This is one part of a sample in which actives are shown more often than they occur.
inhibition reference

compound: CC(=O)c1cn(Cc2ccccc2C#N)c2ccccc12
unit abbrev: %
inhibition: 78
--
compound: CN(C)c1ccc(/C=C/C=C2/C(=O)NC(=O)N(c3ccccc3)C2=O)cc1
unit abbrev: %
inhibition: 80.9
--
compound: O=[N+]([O-])c1ccc(N2CCCNCC2)c2ncccc12
unit abbrev: %
inhibition: -0.2
--
compound: CCc1ccc(N2C(=O)NC(=O)/C(=C\C=C\c3ccco3)C2=O)cc1
unit abbrev: %
inhibition: 89.4
--
compound: COC(=O)c1c(C)n(Cc2ccccc2)c2ccc(O)cc12
unit abbrev: %
inhibition: 19.6
--
compound: COC(=O)c1c(C)n(Cc2ccc3c(c2)OCO3)c2ccc(O)cc12
unit abbrev: %
inhibition: 48.3
--
compound: CCC(=NCCO)c1c(O)n(-c2ccccc2)c(=O)[nH]c1=O
unit abbrev: %
inhibition: 11.4
--
compound: Cc1cc(C)cc(N2C(=O)NC(=O)/C(=C\C=C\c3ccco3)C2=O)c1
unit abbrev: %
inhibition: 67.1
--
compound: C/C(=N\N1CCCCCC1)c1c(O)n(C)c(=O)n(C)c1=O
unit abbrev: %
inhibition: -4.6
--
compound: O=C1NC(=O)N(Cc2ccccc2)C(=O)/C1=C\c1ccco1
unit abbrev: %
inhibition: -5.6
--
compound: CC1CCCCN1Cc1c[nH]c2ccccc12 (stereo not drawn)
unit abbrev: %
inhibition: -3.8
--
compound: Cc1ccc(-c2nc3ccccc3c(=O)n2-c2ccncc2)cc1
unit abbrev: %
inhibition: -34.6
--
compound: CCOC(=O)CCN=Cc1c(O)n(-c2ccc(Br)cc2)c(=O)[nH]c1=O
unit abbrev: %
inhibition: -27.1
--
compound: O=C(C1CCCN(S(=O)(=O)c2cccc3nsnc23)C1)N1CCC2(CC1)OCCO2 (stereo not drawn)
unit abbrev: %
inhibition: -9.3
--
compound: CC(C)C(=O)c1cn(Cc2ccccc2C#N)c2ccccc12
unit abbrev: %
inhibition: -11.1
--
compound: COC(=O)C1CN(C#N)N(c2ccc(Cl)cc2)C12c1ccccc1-c1ccccc12 (stereo not drawn)
unit abbrev: %
inhibition: -10.3
--
compound: COc1cccc(NP(=O)(Oc2ccccc2)Oc2ccccc2)c1
unit abbrev: %
inhibition: -28.2
--
compound: O=C(Cc1ccccc1)Oc1cccc(-n2cnnn2)c1
unit abbrev: %
inhibition: -14.2
--
compound: Cc1cc(/C=C2\C(=O)NC(=O)N(C)C2=O)c(C)n1-c1ccc2c(c1)OCO2
unit abbrev: %
inhibition: -6.1
--
compound: COc1ccccc1N1CCN(Cc2ccccc2Cl)CC1
unit abbrev: %
inhibition: -17.2
--
compound: COc1cc(CC2C(=O)N(C)C(=O)N(C)C2=O)ccc1OCc1ccccc1
unit abbrev: %
inhibition: -15.9
--
compound: O=[N+]([O-])c1ccc(C2[C@H]3C(c4ccccc4)=NC4(CCCC4)N23)cc1 (stereo partly drawn)
unit abbrev: %
inhibition: -19.9
--
compound: O=C1CN(C(=O)CN2CCCCC2)C(c2ccccc2)c2cc(Br)ccc2N1 (stereo not drawn)
unit abbrev: %
inhibition: -24.1
--
compound: Cc1cc(C=C2C(=O)NC(=O)NC2=O)c(C)n1-c1ccc2c(c1)OCO2
unit abbrev: %
inhibition: 55.3
--
compound: Cc1ccc2c(c1)C1CN(C)CCC1N2C(=S)Nc1cccnc1 (stereo not drawn)
unit abbrev: %
inhibition: -34
--
compound: COc1ccc(S(=O)(=O)NC(CC(=O)N2CCC3(CC2)OCCO3)C(C)C)cc1 (stereo not drawn)
unit abbrev: %
inhibition: -3.9
--
compound: COc1cc2c(cc1OC)-c1c(OC)c(OC)c(OC)c3ccnc(c13)C2=O
unit abbrev: %
inhibition: 25.5
--
compound: COC(=O)[C@@H]1[C@@H](C(=O)OC)C2(c3ccccc3-c3ccccc32)N(c2ccc(Cl)cc2)N1C#N
unit abbrev: %
inhibition: -7.2
--
compound: CN[C@H]1C[C@H]2O[C@@](C)([C@H]1OC)n1c3ccccc3c3c4c(c5c6ccccc6n2c5c31)C(=O)NC4
unit abbrev: %
inhibition: 1.7
--
compound: CCOC(=O)CNC(=S)N1CC2C[C@@H](C1)Cn1c2cccc1=O
unit abbrev: %
inhibition: 0.7
--
compound: CC(=O)Nc1ccc(CC(=O)N2CCN(Cc3ccccc3)CC2)cc1
unit abbrev: %
inhibition: 25.2
--
compound: C/C(=C\c1ccc(N(C)C)cc1)[N+](=O)[O-]
unit abbrev: %
inhibition: 41.9
--
compound: CC(C)C(=O)Nc1nnc(CCN(CCc2nnc(NC(=O)C(C)C)s2)[N+](=O)[O-])s1
unit abbrev: %
inhibition: 0.8
--
compound: O=C1NC(=O)C(=Cc2ccc3ccccc3c2)C(=O)N1
unit abbrev: %
inhibition: -4.2
--
compound: CCCCCCNC(=O)N[C@@H](Cc1ccc(O)cc1)C(=O)NCCC[C@H]1CN2C(=NC[C@H]2C)N1CC1CCC1
unit abbrev: %
inhibition: 2.9
--
compound: Cc1cc(C=C2C(=O)NC(=S)NC2=O)c(C)n1-c1ccc2c(c1)OCO2
unit abbrev: %
inhibition: 104
--
compound: Cc1ccc(N2C(=O)NC(=O)/C(=C/C=C/c3ccco3)C2=O)cc1
unit abbrev: %
inhibition: 87.4
--
compound: CCOC(=O)c1c(C)n(Cc2ccc3c(c2)OCO3)c2ccc(O)cc12
unit abbrev: %
inhibition: -7.9
--
compound: COc1cc(C=C2C(=O)NC(=O)NC2=O)ccc1OCc1ccc([N+](=O)[O-])cc1
unit abbrev: %
inhibition: -52
--
compound: COc1cc(/C=C(/C)[N+](=O)[O-])ccc1OCc1ccccc1Cl
unit abbrev: %
inhibition: 86.8
--
compound: O=C1NC(=O)N(Cc2ccccc2)C(=O)/C1=C\C=C\c1ccco1
unit abbrev: %
inhibition: 61.5
--
compound: CCN1C(=O)C(=C/C=C/c2ccco2)C(=O)N(CC)C1=S
unit abbrev: %
inhibition: -25.5
--
compound: O=S(=O)(c1ccc(Cl)cc1Cl)N1CCCC1c1cccnc1 (stereo not drawn)
unit abbrev: %
inhibition: -4.1

---

protocol details: inhibition of NOD1-driven NF-kB reporter – cell-based, luminescence, uHTS, primary screen (AID 1578);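 further: HEK-293T reporter cells stimulated with the NOD1 agonist gamma-tri-DAP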
test settings: NOD1-driven NF-kB luciferase reporter cells, at 4 µM, active compounds read high
Among all 290,000 compounds or so, about 3,000 (1%) were called active. The sample holds actives, similar compounds and a random draw of the others, so the mix is not that of the screen.
Each entry below carries its recorded inhibition.
recorded metric: inhibition (%)

molecule: CC12CC[C@H]3[C@@H](CCC4(O)C[C@H](O)CCC34/C=N/NC(=O)c3ccc(O)cc3)C1(O)CCC2C1=CC(=O)OC1 (stereo partly specified)
measured value: -7.5

molecule: CCN(CC)CCCN=Cc1c(O)n(CCc2ccc(F)cc2)c(=O)[nH]c1=O
measured value: 19.7

molecule: C[C@H]1CCCC(=O)CCCCCc2cc(O)cc(O)c2C(=O)O1
measured value: 10.7

molecule: O=C(Nc1cccc(Cl)c1)c1c(O)c2c(n(Cc3ccccc3)c1=O)CCCC2
measured value: -38.5

molecule: O=[N+]([O-])c1ccc(NC2CCN(Cc3ccccc3)CC2)c2ccncc12
measured value: -6.9

molecule: Nc1ccccc1-[n+]1c(-c2ccccc2)cc(-c2ccccc2)cc1-c1ccccc1
measured value: -5.4

molecule: CN(C)CC1CSCCC1(O)c1ccccc1 (stereo unspecified)
measured value: -5.3

molecule: CCOc1cc2c(cc1OCC)-n1cccc1C(c1ccc(OC)cc1)NC2 (stereo unspecified)
measured value: -5.9

molecule: C[C@H]1CCC[C@H](O)CCCCCc2cc(O)cc(O)c2C(=O)O1
measured value: 71.9

molecule: COCc1ccc(CN2CCCC(C(=O)c3sccc3C)C2)o1 (stereo unspecified)
measured value: -44.8

molecule: C/C(=N\N1CCCCCC1)c1c(O)n(C2CCCCC2)c(=O)[nH]c1=O
measured value: -7.2

molecule: CC/C(=N\NC(=O)c1ccccc1)c1c(O)n(Cc2ccccc2)c(=O)[nH]c1=O
measured value: 12.5

molecule: O=[N+]([O-])c1ccc(NC2CCCC2)c2ccncc12
measured value: 40.7

molecule: Cc1cccnc1-n1c(-c2ccco2)nc2ccccc2c1=O
measured value: -8.5

molecule: CC(=O)OC(C)(C)/C=C/C(=O)C(C)(O)C1[C@H](O)C[C@@]2(C)C3CC=C4C(CC[C@@H](O)C4(C)C)[C@]3(CO)C(=O)C[C@]12C (stereo partly specified)
measured value: 12

molecule: CC(C)c1oc(=O)cc2c1[C@@H](O)[C@H]1OC(=O)[C@@]3(C)C[C@@H](O)[C@@H](O)[C@@]2(C)C13 (stereo partly specified)
measured value: 96.2

molecule: CCOc1ccc(-n2c(O)c(C=Nc3ccc(NC(C)=O)cc3)c(=O)[nH]c2=O)cc1
measured value: -7.1

molecule: Cc1cc(N2CCCCC2)ccc1C=C1C(=O)N(C)C(=S)N(C)C1=O
measured value: -10.1

molecule: CN(C)c1ccc(C=C(C#N)C#N)cc1
measured value: -35.8

molecule: O=c1cccc2n1CC1CC2CN(C(c2cccc(F)c2)c2sc3ncnn3c2O)C1 (stereo unspecified)
measured value: -12.7

molecule: CN(C)CC1Oc2ccccc2OC1(O)c1ccccc1 (stereo unspecified)
measured value: 56.4

molecule: CN(C)c1ccc(C(=O)N/N=C/C23CC[C@@H](O)CC2(O)CC[C@@H]2[C@@H]3CCC3(C)C(C4=CC(=O)OC4)CCC23O)cc1 (stereo partly specified)
measured value: 45

molecule: O=S(=O)(c1ccc(Cl)cc1)N1CN2CCN(C2)C1
measured value: -10.2

molecule: O=c1[nH]c(=O)n(Cc2ccccc2Cl)c(O)c1/C=C1/C=CC=N1
measured value: 47.1

molecule: O=C(CSC1c2ccccc2-c2ccccc21)N/N=C/c1ccccc1
measured value: 14.7

molecule: CCN(CC)S(=O)(=O)c1ccc(C(=O)NC2CN3CCC2CC3)cc1 (stereo unspecified)
measured value: 7.1

molecule: C=CCn1c(O)c(C(CC)=NCCc2ccccc2)c(=O)[nH]c1=O
measured value: -24.2

molecule: c1ccc(-c2cc(-c3ccccc3)[n+](-c3ccccc3)c(-c3ccccc3)c2)cc1
measured value: 65.7

molecule: COc1ccc(/C=C/C(=O)c2c(O)n(CCC3=CCCCC3)c(=O)[nH]c2=O)cc1OC
measured value: 14.2

molecule: O=C(/C=C/c1ccccc1)NCCc1cnc[nH]1
measured value: 32.6

molecule: O=[N+]([O-])c1ccc(-[n+]2c(-c3ccccc3)cc(-c3ccccc3)cc2-c2ccccc2)cc1
measured value: -8.8

molecule: Cc1ccc2cc(C=C(C#N)C#N)c(Cl)nc2c1
measured value: 72.2

molecule: CC(=O)OC(C)(C)/C=C/C(=O)[C@](C)(O)[C@H]1[C@H](O)C[C@@]2(C)[C@@H]3CC=C4[C@H](C[C@H](O)C(=O)C4(C)C)[C@]3(C)C(=O)C[C@]12C
measured value: 92.6

molecule: CC1=CC2/C=C(\C)CCC(O)C(O)/C=C/C(=O)C23C(=O)NC(CC(C)C)C3C1C (stereo unspecified)
measured value: 90.7

molecule: Cn1cnnc1Sc1cc(N2CCNCC2)ccc1[N+](=O)[O-]
measured value: -17.2

molecule: O=C(/C=C/c1ccc2c(c1)OCO2)c1c(O)n(CCC2=CCCCC2)c(=O)[nH]c1=O
measured value: 34.4

molecule: COc1ccc(C(=O)N/N=C/C23CC[C@@H](O)CC2(O)CC[C@@H]2[C@@H]3CCC3(C)C(C4=CC(=O)OC4)CCC23O)cc1 (stereo partly specified)
measured value: 12.5

molecule: COCc1cc(OC(=O)N(C)C)nc2c1c(C)nn2C
measured value: -6.7

molecule: c1ccc(-c2nc(N3CCOCC3)s[n+]2-c2ccccc2)cc1
measured value: -49.7

molecule: O=C(NC(Cc1cnc[nH]1)C(=O)O)c1ccccc1 (stereo unspecified)
measured value: -20.8

molecule: O=C(CN1CC=C(c2ccccc2)CC1)Nc1c(Cl)cccc1Cl
measured value: 30.6
